# System tested: Genome polyprotein (dengue virus type 2) (UniProt P29990)
# Condition label: Thailand/16681/1984, Concentration 100.0 uM, Number of replicates 1.0
Test readout: inhibition (%)
Form entry: value (%) — number only.

Solved cases (3 shown):
> print(dat)
                       molecular.string  test.readout  reported
1             Cc1nnc(CSc2ncnc3sccc23)o1    inhibition      30.9
2  O=c1ccn(Cc2cc(=O)n3ccccc3n2)c2ccsc12    inhibition      3.86
3                O=C(O)c1c(Br)sc2nnsc12    inhibition     -5.37

Find inhibition (Genome polyprotein (dengue virus type 2) (UniProt P29990)) for the entry c1csc(-c2nnc(Sc3ncnc4sccc34)o2)c1
5.5

Checklist item: inhibition tested on Genome polyprotein (dengue virus type 2) (UniProt P29990), entry O=c1ccc(-n2cncn2)nn1CC=Cc1ccccc1 , value?
-7

# returns recorded inhibition (system: Genome polyprotein (dengue virus type 2) (UniProt P29990)) for c1cc2sccc2c(N2CCN(Cc3ccc4cn[nH]c4c3)CC2)n1
8.61

Genome polyprotein (dengue virus type 2) (UniProt P29990) / inhibition / FC(F)(F)c1nnc(COc2cncnc2)s1 : value?
-9.02

Enter reported inhibition observed with Genome polyprotein (dengue virus type 2) (UniProt P29990) for O=S1(=O)CCN(CC#Cc2ccc3sncc3c2)CC1
-9.23

Query inhibition on Genome polyprotein (dengue virus type 2) (UniProt P29990) for O=S(=O)(c1cccs1)N1CCN(CC=Cc2ccccc2)CC1
21.8

----------
Item-by-item account of inhibition
# System tested: Genome polyprotein (dengue virus type 2) (UniProt P29990)
# Condition label: Thailand/16681/1984, Concentration 25.0 uM, Number of replicates 1.0
State just the number; it will be interpreted in %.

Example results:
> print(dat)
                     molecular.string  reported
1    Cc1c(C=O)c2ccccn2c1C(=O)c1ccncc1      41.1
2        O=Cc1ccc(N2CCC(C(=O)O)CC2)o1      40.9
3  CC[C@H]1CO[C@H](C)CN1c1ccc(C=O)cn1      41.1

Now for the compound whose inhibition we want.
Please state recorded inhibition (tested on Genome polyprotein (dengue virus type 2) (UniProt P29990)) of O=Cc1ccc(N2CCC(C(=O)O)CC2)cc1
47.6

Values from ChEMBL document CHEMBL5606460
